Target: CYP17 (human testicular microsome) (Homo sapiens, UniProt P05093)
Construct: using microsomal fraction from human testis (Celsis Cat #S00110) as the enzyme source; tissue Celsis S00110; host or cells: human testis microsomal fraction
Sequence (P05093 1-508): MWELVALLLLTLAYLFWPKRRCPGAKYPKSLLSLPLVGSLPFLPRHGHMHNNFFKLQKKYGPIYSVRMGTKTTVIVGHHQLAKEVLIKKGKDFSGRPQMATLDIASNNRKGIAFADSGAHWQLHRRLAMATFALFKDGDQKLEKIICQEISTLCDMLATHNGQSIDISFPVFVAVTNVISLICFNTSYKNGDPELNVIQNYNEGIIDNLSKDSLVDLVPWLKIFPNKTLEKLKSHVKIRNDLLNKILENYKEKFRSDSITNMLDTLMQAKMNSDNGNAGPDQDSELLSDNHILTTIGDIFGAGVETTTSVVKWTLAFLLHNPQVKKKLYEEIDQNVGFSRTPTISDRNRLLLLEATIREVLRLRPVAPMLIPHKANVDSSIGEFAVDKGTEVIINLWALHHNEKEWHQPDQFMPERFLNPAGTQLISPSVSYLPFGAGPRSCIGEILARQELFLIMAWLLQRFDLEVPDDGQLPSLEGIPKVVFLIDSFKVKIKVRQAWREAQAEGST
Assay: CYP17 enzymatic assay (% inhibition at 10 nM), version 1 (Biological Example 5)
Format: biochemical
Settings: 10 nM compound, DHEA by ELISA, read-out: Biological Example No. 5: CYP17 percent inhibition at 10 nM (version 1)

compound | studySystem | inhibition at 0.01 µM
C[C@]12CC[C@H](O)CC1=CC[C@@H]1[C@@H]2CC[C@]2(C)C(c3cccnc3)=CC[C@@H]12 [C, reference compound] | CYP17 (human testicular microsome) (Homo sapiens, UniProt P05093) | > 80%
CCCOc1cncc(C2=CC[C@H]3[C@@H]4CCC5=CCN(C)CC[C@]5(C)[C@H]4CC[C@]23C)c1 | CYP17 (human testicular microsome) (Homo sapiens, UniProt P05093) | 1 to 50%
C[C@]12CCCCC1=CC[C@@H]1[C@@H]2CC[C@]2(C)C(c3cccnc3)=CC[C@@H]12 | CYP17 (human testicular microsome) (Homo sapiens, UniProt P05093) | 50 to 80%
C[C@]12CC[C@H]3[C@@H](CC=C4C[C@@H](O)CC[C@@]43C)C1=CC=C2c1cccnc1 | CYP17 (human testicular microsome) (Homo sapiens, UniProt P05093) | 50 to 80%
C[C@]12CC[C@H]3[C@@H](CCN4CCCCC[C@]34C)[C@@H]1CC=C2c1cccnc1 | CYP17 (human testicular microsome) (Homo sapiens, UniProt P05093) | 1 to 50%
C[C@]12CCCCC1C(O)C[C@@H]1[C@@H]2CC[C@]2(C)C(n3ccnc3)=CC[C@@H]12 (some centres unmarked) | CYP17 (human testicular microsome) (Homo sapiens, UniProt P05093) | 50 to 80%
CCc1cncc(C2=CC[C@H]3[C@@H]4CCC5=CCN(C)CC[C@]5(C)[C@H]4CC[C@]23C)c1 | CYP17 (human testicular microsome) (Homo sapiens, UniProt P05093) | 1 to 50%
C[C@]12CC[C@H]3[C@@H](CC[C@H]4C[C@@H](O)CC[C@@]43C)C1=CC=C2c1cccnc1 | CYP17 (human testicular microsome) (Homo sapiens, UniProt P05093) | > 80%
C[C@]12CCCCC[C@@H]1CC[C@@H]1[C@@H]2CC[C@]2(C)C(n3ccnc3)=CC[C@@H]12 | CYP17 (human testicular microsome) (Homo sapiens, UniProt P05093) | 50 to 80%
C[C@]12CC[C@H]3[C@@H](CC[C@H]4CC(=O)CC[C@@]43C)C1=CC=C2c1cccnc1 | CYP17 (human testicular microsome) (Homo sapiens, UniProt P05093) | > 80%
C[C@]12CCOCC[C@@H]1CC[C@@H]1[C@@H]2CC[C@]2(C)C(c3cccnc3)=CC[C@@H]12 | CYP17 (human testicular microsome) (Homo sapiens, UniProt P05093) | > 80%
Cc1cncc(C2=CC[C@H]3[C@@H]4CCC5N(C)C(=O)COC[C@]5(C)[C@H]4CC[C@]23C)c1 (some centres unmarked) | CYP17 (human testicular microsome) (Homo sapiens, UniProt P05093) | 1 to 50%
COc1cncc(C2=CC=C3[C@@H]4CC=C5C[C@@H](O)CC[C@]5(C)[C@H]4CC[C@]23C)c1 | CYP17 (human testicular microsome) (Homo sapiens, UniProt P05093) | > 80%
COc1cncc(C2=CC[C@H]3[C@@H]4CC[C@H]5CCOCC[C@]5(C)[C@H]4CC[C@]23C)c1 | CYP17 (human testicular microsome) (Homo sapiens, UniProt P05093) | 50 to 80%

Data origin, for the record: patent US20130252930A1
